# maps each entry to its binding signal
Target or system: TDP-43 (Homo sapiens, UniProt Q13148 1-414)
Sequence (Q13148 whole entry): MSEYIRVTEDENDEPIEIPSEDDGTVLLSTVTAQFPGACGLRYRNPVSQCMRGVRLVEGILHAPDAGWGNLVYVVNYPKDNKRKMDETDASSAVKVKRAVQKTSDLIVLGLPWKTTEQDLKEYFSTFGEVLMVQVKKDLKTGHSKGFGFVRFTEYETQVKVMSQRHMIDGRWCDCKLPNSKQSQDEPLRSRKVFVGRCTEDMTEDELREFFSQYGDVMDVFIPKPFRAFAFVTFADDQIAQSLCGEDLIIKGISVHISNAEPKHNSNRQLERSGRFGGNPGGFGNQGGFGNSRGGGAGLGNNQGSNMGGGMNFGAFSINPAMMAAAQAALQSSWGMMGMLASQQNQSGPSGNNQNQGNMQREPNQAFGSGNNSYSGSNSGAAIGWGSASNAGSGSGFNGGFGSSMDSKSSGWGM
Assay info: RNA Bind-n-Seq with designed 260-mer pool; 25 mM Tris-HCl, 150 mM KCl, 3 mM MgCl2, BSA (printed 500 mg/mL), 20 units/mL SUPERase IN; pH not stated; 500 nM RNA pool, 1 h, 4 C; TDP-43 5, 50, 500 nM; high values mean tight binding
Condition: protein: recombinant; tags: SBP (GST cleaved off with PreScission; pGEX-GST-SBP)
In all, about 9,900 sequences were measured (“r (bound/input frequency ratio)”: median about 0.7, highest 2% from about 6.5 on). This excerpt belongs to a sample that is enriched for the highest values.

Some binders with known binding signal results, for comparison:
Query string: For the binder ENSMUSG00000061578.1432|Ksr2|151:155;246:250 (ssRNA) RNA: GGGAGUUCUACAGUCCGACGAUCGCUUCGAUAUCCGCAUGCUAGUCUCUCUCACUCAUUGCCAACAUGUUGCUGGGAAAGAAUAUUUGAUUUAGAUGCCAAUCAGGAAGGCAAGUAGGAUGGAUGGAUGAGUGAGUGGAUAGGUAGGUAUAUAAAUGGAUGGAUGGGUGAUGGAUGGGUAAAUGAAUGGAUAGCAUACUGAAUGAAUGGAUGAUGGAUGAAUGGAUGGGUAGGUGGGUAGAUAGGUAUAUGAAUGAAUGGAUGAAUGGAUGGGUGAAUGGAUGGAUAGCAUACUGAAUAAAUGCUCUUGCGGUCGCACUAGUGUGGAAUUCUCGGGUGUCAAGG , give its measured binding signal value.
Result string: 5.51 R (bound/input frequency ratio)

Query string: Give the value of binding signal reported for the following: ENSMUSG00000061578.1431|Ksr2|157:161;252:256 (ssRNA) RNA: GGGAGUUCUACAGUCCGACGAUCGCUUCGAUAUCCGCAUGCUACUCUCUGUCUCUCUCACUCAUUGCCAACAUGUUGCUGGGAAAGAAUAUUUGAUUUAGAUGCCAAUCAGGAAGGCAAGUAGGAUGGAUGGAUGAGUGAGUGGAUAGGUAGGUAUAUAAAUGGAUGGAUGGGUGAUGGAUGGGUAAAUGAAUGGAUAGCAUACUGAAUGAAUGGAUGAUGGAUGAAUGGAUGGGUAGGUGGGUAGAUAGGUAUAUGAAUGAAUGGAUGAAUGGAUGGGUGAAUGGAUGGAUAGCAUACUGAACUCUUGCGGUCGCACUAGUGUGGAAUUCUCGGGUGUCAAGG
Result string: 7.04 R (bound/input frequency ratio)

Query string: Quick one: give measured binding signal for ENSMUSG00000058297.296|Spock2|65:70 (ssRNA) RNA: GGGAGUUCUACAGUCCGACGAUCGCUUCGAUAUCCGCAUGCUAAGAGAAUGAGAGAGAGAAUACCCGAGGGCCACCCUGAUGCCCAGGAAGAGUGAGGGCAGCCCCCACACACGUGGAAGAGGCUGGGCAGCUAGCUACUGGGGACCUUGUGCUGAGGCUUCCAGGACAAAGCCCCAGUCUGGCUCUCCCCCAGCCUCUCAGGGGCACUGGCUGGUCACAUCCACUGAGUAUUGAUCGGUUGGACUUUAGGGAAGAGCCUCCUCCUUCCCAUUCCUUUCUGCCACCCUGGAAUGGCCACCUUACUCUUGCGGUCGCACUAGUGUGGAAUUCUCGGGUGUCAAGG
Result string: 4.88 R (bound/input frequency ratio)

The record that follows has no binding signal shown yet.
Query string: Given ENSMUSG00000029028.148|Lrrc47 (ssRNA) RNA: GGGAGUUCUACAGUCCGACGAUCGCUUCGAUAUCCGCAUGCUAUUGAGAACAUCAUGUUGUGAGUGUAAUCUUCUUAGAGCUUGUUUCCAGGCACCGUGCUGCCGCCAUGCUCCCAGGGCAGCAUCUGCCUUCCACGGCUGUGCUUGGAACUGUAGUGCUGGUCGUUGUUGGCACAUCUGCGCCUUGGCCAAGGAAGUUAUCUAUGUCCGUGUAGUCCUUUGUAGUCAGACAGAUGCUUCGUGGACUGUGCCUCACACAUGGCCCUGCAGGCUCCAUGUCAGCGUGUCCCACUAUUCAUGUCCCUCUUGCGGUCGCACUAGUGUGGAAUUCUCGGGUGUCAAGG , respond with its binding signal.
Result string: 1.13 R (bound/input frequency ratio)
